- target: IRAK4 (Homo sapiens (Human), UniProt Q9NWZ3)
- Sequence (Q9NWZ3 whole entry, species assumed): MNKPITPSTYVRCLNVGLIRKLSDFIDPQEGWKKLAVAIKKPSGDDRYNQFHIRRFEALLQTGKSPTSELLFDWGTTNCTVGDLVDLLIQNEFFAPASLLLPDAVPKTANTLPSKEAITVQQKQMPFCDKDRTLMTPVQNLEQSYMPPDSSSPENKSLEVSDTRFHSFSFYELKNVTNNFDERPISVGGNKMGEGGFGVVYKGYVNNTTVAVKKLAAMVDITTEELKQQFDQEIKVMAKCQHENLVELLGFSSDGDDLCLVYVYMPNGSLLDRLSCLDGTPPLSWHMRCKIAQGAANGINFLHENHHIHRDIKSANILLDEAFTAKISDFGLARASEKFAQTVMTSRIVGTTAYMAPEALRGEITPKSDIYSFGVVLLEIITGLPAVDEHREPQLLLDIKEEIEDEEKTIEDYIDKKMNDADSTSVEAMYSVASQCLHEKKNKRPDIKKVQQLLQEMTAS
- protocol: IRAK4 Biochemical HTRF Kinase Assay
- condition_description: Table 5; multiple runs; read-out: IRAK4 HTRF biochemical: IC50
- Description: IRAK4 Biochemical HTRF Kinase Assay The binding capacities of certain bifunctional compounds of Formula (I) were determined using the CisBio HTRF KinEASE STK S1 Kit (#62ST1PEB, contains 5× Kinase buffer, 1× Detection Buffer, anti-phospho-serine/threonine-cryptate, Streptavidin-XL665, and STK-S1), which measures the phosphorylation of a biotinylated peptide substrate by IRAK4, according to the manufacturer's protocol. […]

[
  {
    "molecule": "Cc1ncsc1-c1ccc(CNC(=O)[C@@H]2C[C@@H](O)CN2C(=O)[C@@H](NC(=O)C2(F)CC2)C(C)(C)C)c(OCCCC(=O)N2CCN(c3nnc(-c4cnc(-c5ccc6cc(C#N)cnn56)cc4NC(C)C)s3)CC2)c1",
    "readout_units": "nM",
    "IC50": 9.8
  },
  {
    "molecule": "CNc1cc(-c2ccc3cc(C#N)cnn23)ncc1-c1nnc(N2CCN(C(=O)N3CCN(Cc4ccc5c(c4)C(=O)N(C4CCC(=O)NC4=O)C5=O)CC3)CC2)s1 (centres unmarked)",
    "readout_units": "nM",
    "IC50": 0.8
  },
  {
    "molecule": "CNc1cc(-c2ccc3cc(C#N)cnn23)ncc1-c1nnc([C@H]2CC[C@H](NC(=O)CCOCCOCCOCCNc3cccc4c3C(=O)N(C3CCC(=O)NC3=O)C4=O)CC2)s1 (some centres unmarked)",
    "readout_units": "nM",
    "IC50": 0.8
  },
  {
    "molecule": "CNc1cc(-c2ccc3cc(C#N)cnn23)ncc1-c1nnc(N2CCC(N3CCN(C(=O)c4ccc5c(c4)C(=O)N(C4CCC(=O)NC4=O)C5=O)CC3)CC2)s1 (centres unmarked)",
    "readout_units": "nM",
    "IC50": 0.3
  },
  {
    "molecule": "CNc1cc(-c2ccc3cc(C#N)cnn23)ncc1-c1nnc(C2CCC(NC(=O)C[C@H](NC(=O)[C@@H]3C[C@@H](O)CN3C(=O)[C@@H](NC(=O)C3(F)CC3)C(C)(C)C)c3ccccc3)CC2)s1 (some centres unmarked)",
    "readout_units": "nM",
    "IC50": 0.8
  }
]
